- experimentalTarget: STIM1 and Orai1 (CRAC channel) (Homo sapiens, UniProt Q96D31)
- Sequence (Q96D31 whole entry): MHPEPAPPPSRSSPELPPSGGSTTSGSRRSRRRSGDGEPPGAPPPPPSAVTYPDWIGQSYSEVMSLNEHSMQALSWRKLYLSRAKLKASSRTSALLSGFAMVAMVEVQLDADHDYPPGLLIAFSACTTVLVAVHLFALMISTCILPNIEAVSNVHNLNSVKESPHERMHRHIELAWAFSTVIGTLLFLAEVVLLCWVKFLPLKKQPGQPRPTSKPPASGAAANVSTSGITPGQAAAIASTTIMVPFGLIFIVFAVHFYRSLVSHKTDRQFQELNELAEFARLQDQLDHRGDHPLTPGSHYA
- Sequence (Q13586 23-685 partner): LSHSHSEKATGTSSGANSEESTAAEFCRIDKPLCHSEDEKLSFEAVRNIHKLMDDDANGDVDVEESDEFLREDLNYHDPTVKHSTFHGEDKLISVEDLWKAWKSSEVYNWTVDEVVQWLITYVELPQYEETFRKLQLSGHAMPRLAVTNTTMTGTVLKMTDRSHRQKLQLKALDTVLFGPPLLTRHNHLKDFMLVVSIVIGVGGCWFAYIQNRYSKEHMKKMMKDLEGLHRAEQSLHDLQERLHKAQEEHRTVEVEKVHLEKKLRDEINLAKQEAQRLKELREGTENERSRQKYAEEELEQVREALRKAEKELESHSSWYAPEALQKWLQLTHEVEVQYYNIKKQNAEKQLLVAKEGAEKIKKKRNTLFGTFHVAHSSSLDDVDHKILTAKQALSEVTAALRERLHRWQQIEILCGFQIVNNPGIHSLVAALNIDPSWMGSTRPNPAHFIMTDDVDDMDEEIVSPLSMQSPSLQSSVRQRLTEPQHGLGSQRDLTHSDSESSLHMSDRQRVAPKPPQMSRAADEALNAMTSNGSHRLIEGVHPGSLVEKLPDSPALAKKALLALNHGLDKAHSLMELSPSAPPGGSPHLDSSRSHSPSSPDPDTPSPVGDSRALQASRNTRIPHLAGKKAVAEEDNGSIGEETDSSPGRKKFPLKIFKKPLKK
- protocolNotes: Whole-cell patch-clamp CRAC current in HEK293 cells expressing STIM1 and Orai1
- settings: Ki, dose-inhibition analysis, HEK293 STIM1+Orai1; LOCI-1 n = 3, LOCI-2 n = 4
observable: pKi
// pKi here means minus log10 of the molar concentration (mol/L)

Input: Any idea what pKi was measured for OB(O)c1ccc(/N=N/c2ccccc2)cc1 [LOCI-1] ?
Output: 5.26

* * *

- experimentalTarget: STIM1 together with Orai3 (Homo sapiens, UniProt Q9BRQ5)
- protocolNotes: Whole-cell patch-clamp CRAC current in cells coexpressing STIM1 and Orai3
observable: Ki
Quick note: unit goes after the number.

Input: Any idea what Ki was measured for OB(O)c1ccc(/N=N/c2ccccc2)cc1 [LOCI-1] ?
Output: 131 µM
